The entries below come with measured pKd values attached.
B1: scFv; the commonest letter at each place (parent)
chain 1: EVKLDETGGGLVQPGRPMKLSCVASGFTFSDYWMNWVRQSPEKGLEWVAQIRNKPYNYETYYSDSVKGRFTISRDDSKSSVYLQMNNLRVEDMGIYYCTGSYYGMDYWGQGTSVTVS
chain 2: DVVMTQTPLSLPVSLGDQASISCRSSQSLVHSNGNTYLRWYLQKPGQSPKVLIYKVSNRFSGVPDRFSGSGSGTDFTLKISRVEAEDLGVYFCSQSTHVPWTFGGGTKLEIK

Variants of: B1
Experiment: Kd (Tite-Seq)
Conditions: with fluorescein; format: scFv 4-4-20, heavy + light
pKd: −log10 of the molar value.

Some solved entries appear below for comparison.
[[record]]
mutation = "chain 1 S30A V37R"
result = 8.06

[[record]]
mutation = "chain 1 W33Y N35R"
result = "≤ 5.00"

[[record]]
mutation = "chain 1 S30C W36G"
result = 7.68

[[record]]
mutation = "chain 1 S30R Y32Q"
result = "≤ 5.00"

[[record]]
mutation = "chain 1 S30A W36H"
result = "≤ 5.00"


Briefly, pKd measured for chain 1 Y103H : 7.88

Entry chain 1 G100F S101I , pKd reported as ≤ 5.00

// field: pKd; key: chain 1 D31V W33K ; value = ≤ 5.00

So for chain 1 T28N D31I Y32R , the logged pKd turned out to be ≤ 5.00

According to the records, this variant chain 1 D106A W108V displays pKd of ≤ 5.00

# variant chain 1 Y102V D106I ; its pKd = ≤ 5.00
